Source: paper PMC5899673

# tested on: Native human myeloperoxidase (MPO) isolated from purulent sputum (human) (UniProt P05164)
# test name: SPR

binder: SPIN (Staphylococcal Peroxidase INhibitor) from S. aureus strain Newman (natural protein) KVYSQNGLVLHDDANFLEHELSYIDVLLDKNADQATKDNLRSYFADKGLHSIKDIINKAKQDGFDVSKYEHVK
Kd / µM: 0.0159
